// data source = patent US20030190364A1

test: Heparin affinity column, NaCl concentration required for elution; type: binding; conditions: 50 mM sodium phosphate pH 7.5, gradient 0 to 2 M NaCl over 20 column volumes
Where no end group is shown, it is not given here. [ ]: non-standard residue; d: D form. The star is where a group is joined. FITC = O=C1OC2(c3ccc(O)cc3Oc3cc(O)ccc32)c2ccc(NC(=S)*)cc21; βAla = NCCC(=O)O
RECORDED_ENDPOINT: NaCl Elution Conc. (mM)
Give bare numbers, in mM.

• FITC-A(β)YGRKKRRQRRR (AYGRKKRRQRRR; N-terminal FITC-beta-alanine) [FITC-TAT] = 703.6
• FITC-A(β)KAFAKLAARLYRKAGC ({FITC}-[βAla]KAFAKLAARLYRKAGC) [FITC-PBD1] = 438.8
• KAFAKLAARLYRKAGC [PBD1-A] = 325.0

Alright, here's another substance for you.
[in] Please look up its NaCl Elution Conc.: FITC-A(β)KAFAALAARLYRKAGC ({FITC}-[βAla]KAFAALAARLYRKAGC) [PBD3, PBD3 control is the same peptide tested without heparin]
[out] 313.0
